# HAI, specific activity of indicated mAb listing for each entry below
# experimental-system: 1918 HA displayed on 1918 virus-like particles, reconstituted 1918 virus or transfected cells (influenza A/South Carolina/1/1918 …, UniProt Q9WFX3 18-566)
# Sequence (Q9WFX3 18-566): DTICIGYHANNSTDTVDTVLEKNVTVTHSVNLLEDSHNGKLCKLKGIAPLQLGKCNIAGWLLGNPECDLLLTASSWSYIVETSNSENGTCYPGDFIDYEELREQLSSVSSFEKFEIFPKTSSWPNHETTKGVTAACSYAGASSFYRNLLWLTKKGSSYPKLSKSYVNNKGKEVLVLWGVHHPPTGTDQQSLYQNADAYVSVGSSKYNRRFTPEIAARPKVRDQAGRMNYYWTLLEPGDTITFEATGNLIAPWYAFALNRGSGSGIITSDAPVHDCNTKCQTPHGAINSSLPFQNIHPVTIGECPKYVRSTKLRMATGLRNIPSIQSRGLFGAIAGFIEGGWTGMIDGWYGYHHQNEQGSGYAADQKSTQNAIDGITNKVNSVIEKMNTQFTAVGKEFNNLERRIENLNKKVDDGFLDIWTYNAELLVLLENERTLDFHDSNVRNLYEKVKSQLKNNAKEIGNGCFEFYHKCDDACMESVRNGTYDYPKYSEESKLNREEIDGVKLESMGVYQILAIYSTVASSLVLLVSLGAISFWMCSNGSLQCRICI
# method-description: cell-based or functional assay
Only the number, expressed in µg/mL, is required.

Give HAI, specific activity of indicated mAb for mAb 1I20 (antibody, V domains shown) VH: EVQLVESGGGVVQPGGSLRLSCIASAFNLGIFGMHWVRQAPGKGLEWVAFIRYDGGKTFYADSVKGRFTISRDNSKNTLYLQMNSLRTEDTALYYCARDATADYYGPGSYPNWLDPWGQGTLVTVS VL: DIRLTQSPATLSVSPGERATLSCRASHSVSRNLAWYQQKPGRAPRLLVYDTSSRATGIPARFSGSGSGTEFTLTISSLQSEDFAVYYCQQYNNWPRTFGQGTKVDIK 0.28

Answer with the recorded HAI, specific activity of indicated mAb for the binder listed here: mAb 2B12 (antibody, V domains shown) VH: EVQLQESGPGLVKPSQTLSLTCNVSGGSITGDYKWSWIRQPPGKGLEWIGHIHSTGTTYYNPSLRSRITISMDTSKNNLSLRLTSVTAADTAVYYCASHTLTSGHYPRDFDFWGQGTLVTVSS VL: SYVLTQPPSVSGTPGQRVIISCSGYSSNIGSNTVNWYQQFPGTAPRLLIYANNQRPPGVPDRFSGSKSGTSASLAISGLQSDDESDYYCAAWDDSLNGHWVFGGGTKLTVLG 0.32

Supply HAI, specific activity of indicated mAb value. Item: mAb 4D20 (antibody, V domains shown) VH: EVQLVESGPVLVKPTETLTVTCTVSGFSVDNDRMGVSWIRQPPGKALEWLAHIFSNDEKSYSTSLRSRLTISKDTSKRQVVLSMTDMDPVDTATYYCARAPSEYAAMDVWGQGTMVTVS VL: SYVLTQPPSVSVAPGETATVTCGGNNIGSKSVHWYQQKPGQAPVVVIYYDGDRPSGIPERFSGSNSGDTATLTISRVEAGDEADYYCLVWDYTSVHYVFGTGTKVTVLG 0.04

Return the recorded HAI, specific activity of indicated mAb value; entry: mAb 1F1 (antibody, V domains shown) VH: EVQLVQSGGGVVQPRRSLRLSCAASGFTFSSYAMHWVRQAPGKGLEWVAVISYDGRNKYYADSVKGRFTVSRDNSKNTLYLQMNSLRAEDTSVYYCARELLMDYYDHIGYSPGPTWGQGTLVTVSS VL: QPVLTQPPSASGSPGQRVTISCSGSSSNIGSYTVNWYQQLPGTAPKLLIYSLNQRPSGVPDRFSGSKSGTSASLAISGLQSEDEAVYYCAAWDDSLSAHVVFGGGTKLTVLG 0.04
